- tested_target: AGTR1 (Homo sapiens, UniProt P30556)
- Construct: host or cells: Pathunter CHO-K1 AGTR1 β-arrestin cell line (CHO-K1)
- Sequence (P30556 1-359): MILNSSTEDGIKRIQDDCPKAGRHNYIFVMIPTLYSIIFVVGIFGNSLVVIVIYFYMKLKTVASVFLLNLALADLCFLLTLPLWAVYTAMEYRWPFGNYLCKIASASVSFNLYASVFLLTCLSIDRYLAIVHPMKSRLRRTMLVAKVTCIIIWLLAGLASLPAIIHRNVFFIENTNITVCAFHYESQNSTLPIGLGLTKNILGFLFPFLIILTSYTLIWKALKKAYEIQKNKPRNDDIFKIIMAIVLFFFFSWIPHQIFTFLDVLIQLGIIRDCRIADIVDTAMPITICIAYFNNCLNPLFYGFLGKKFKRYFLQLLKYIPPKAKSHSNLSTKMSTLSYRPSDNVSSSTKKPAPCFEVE
- procedure_details: DiscoveRx β-arrestin2 recruitment assay (enzyme complementation, Pathunter CHO-K1 AGTR1 β-arrestin cell line)
- Format: cell-based
- run_parameters: DiscoveRx β-arrestin2 recruitment, maximal response
This listing pairs compounds with measured DiscoveRx β-arrestin2 Ymax (%).
Your answer is read as %, so omit the unit and give the number.

Prompt: Query (compound): CCCCOC(=O)NS(=O)(=O)c1sc(-c2ccccc2C)cc1-c1ccc(Cn2c(CC)nc3c(C)cc(C)nc32)cn1 [Example 39] ; field requested: DiscoveRx β-arrestin2 Ymax (%)
Response: 23.3

Prompt: Entry to check: CCCCC1=NC2(CCOC2)C(=O)N1Cc1ccc(-c2cc(-c3cc(C)ccn3)ccc2-c2nnn[nH]2)cc1 (single isomer, unassigned) [Example 154]
Response: 48.7

Prompt: Now the compound CCc1nc2c(C)cc(C)nc2n1Cc1ccc(-c2cc(-c3ccccc3OC)ccc2-c2nn[nH]n2)cc1 [Example 5]
Response: 30.9

Prompt: Another compound to look at: CCCCc1ncc(C(=O)NCC(C)(C)COC)n1Cc1ccc(-c2cc(-c3ccccc3)ccc2-c2nn[nH]n2)cc1 [Example 360]
Response: 37.2

Prompt: Also CCCCc1ncc(C(=O)NCC(C)(C)C)n1Cc1ccc(-c2cc(-c3ccccc3)ccc2-c2nn[nH]n2)cc1 [Example 373] , if possible.
Response: 29.5

Prompt: Also need CCCC1=NC2(CCOC2)C(=O)N1Cc1ccc(-c2cc(-c3ccccc3)ccc2-c2nn[nH]n2)cc1 (single isomer, unassigned) [Example 158] , thanks.
Response: 41.6

Prompt: Similarly, CCc1nc2c(C)cc(C)nc2n1Cc1ccc(-c2cc(-c3ccc(N(C)C)cc3)ccc2-c2nn[nH]n2)cc1 [Example 15] ?
Response: 14.9

Prompt: Note, next up: CCCCC1=NC2(CCCC2)C(=O)N1Cc1ccc(-c2cc(-c3ccc(OC(F)(F)F)cc3)ccc2-c2nn[nH]n2)cc1 [Example 134]
Response: 40.3

Prompt: Okay, and CCc1nc2c(C)cc(C)nc2n1Cc1ccc(-c2cc(-c3ccc(C(=O)N(C)C)cc3)ccc2C(=O)O)cc1 [Example 185] ?
Response: 48.9

Prompt: Again, but for CCCCc1nc(Cl)c(C(=O)OCc2oc(=O)oc2C)n1Cc1ccc(-c2cc(-c3ccccc3)ccc2-c2nn[nH]n2)cc1 [Example 411]
Response: 56.4

Prompt: Entry to check: CCCCC1=NC2(CCCC2)C(=O)N1Cc1ccc(-c2cc(N3CC4(CC4)c4ccccc43)ccc2-c2nn[nH]n2)cc1 [Example 108]
Response: 38.8

Prompt: Same read-out for CCCCC(=O)N(Cc1ccc(-c2cc(-c3ccccc3)ccc2-c2nn[nH]n2)cc1)[C@H](C(=O)O)C(C)C [Example 34] ?
Response: 35.6

Prompt: And what about the compound CCCCC1=NC2(CCOCC2)C(=O)N1Cc1ccc(-c2cc(-c3cccc(C)c3)ccc2-c2nn[nH]n2)cc1 [Example 155] ?
Response: 32.0

Prompt: Now the same for CCCc1nc(CC)c(C(N)=O)n1Cc1ccc(-c2cc(-c3ccccc3)ccc2-c2nn[nH]n2)c(C)c1 [Example 426]
Response: 52.5
